measured_target: ATP-binding cassette sub-family C member 9 (Rattus norvegicus) (UniProt Q63563)
Sequence (Q63563 whole entry): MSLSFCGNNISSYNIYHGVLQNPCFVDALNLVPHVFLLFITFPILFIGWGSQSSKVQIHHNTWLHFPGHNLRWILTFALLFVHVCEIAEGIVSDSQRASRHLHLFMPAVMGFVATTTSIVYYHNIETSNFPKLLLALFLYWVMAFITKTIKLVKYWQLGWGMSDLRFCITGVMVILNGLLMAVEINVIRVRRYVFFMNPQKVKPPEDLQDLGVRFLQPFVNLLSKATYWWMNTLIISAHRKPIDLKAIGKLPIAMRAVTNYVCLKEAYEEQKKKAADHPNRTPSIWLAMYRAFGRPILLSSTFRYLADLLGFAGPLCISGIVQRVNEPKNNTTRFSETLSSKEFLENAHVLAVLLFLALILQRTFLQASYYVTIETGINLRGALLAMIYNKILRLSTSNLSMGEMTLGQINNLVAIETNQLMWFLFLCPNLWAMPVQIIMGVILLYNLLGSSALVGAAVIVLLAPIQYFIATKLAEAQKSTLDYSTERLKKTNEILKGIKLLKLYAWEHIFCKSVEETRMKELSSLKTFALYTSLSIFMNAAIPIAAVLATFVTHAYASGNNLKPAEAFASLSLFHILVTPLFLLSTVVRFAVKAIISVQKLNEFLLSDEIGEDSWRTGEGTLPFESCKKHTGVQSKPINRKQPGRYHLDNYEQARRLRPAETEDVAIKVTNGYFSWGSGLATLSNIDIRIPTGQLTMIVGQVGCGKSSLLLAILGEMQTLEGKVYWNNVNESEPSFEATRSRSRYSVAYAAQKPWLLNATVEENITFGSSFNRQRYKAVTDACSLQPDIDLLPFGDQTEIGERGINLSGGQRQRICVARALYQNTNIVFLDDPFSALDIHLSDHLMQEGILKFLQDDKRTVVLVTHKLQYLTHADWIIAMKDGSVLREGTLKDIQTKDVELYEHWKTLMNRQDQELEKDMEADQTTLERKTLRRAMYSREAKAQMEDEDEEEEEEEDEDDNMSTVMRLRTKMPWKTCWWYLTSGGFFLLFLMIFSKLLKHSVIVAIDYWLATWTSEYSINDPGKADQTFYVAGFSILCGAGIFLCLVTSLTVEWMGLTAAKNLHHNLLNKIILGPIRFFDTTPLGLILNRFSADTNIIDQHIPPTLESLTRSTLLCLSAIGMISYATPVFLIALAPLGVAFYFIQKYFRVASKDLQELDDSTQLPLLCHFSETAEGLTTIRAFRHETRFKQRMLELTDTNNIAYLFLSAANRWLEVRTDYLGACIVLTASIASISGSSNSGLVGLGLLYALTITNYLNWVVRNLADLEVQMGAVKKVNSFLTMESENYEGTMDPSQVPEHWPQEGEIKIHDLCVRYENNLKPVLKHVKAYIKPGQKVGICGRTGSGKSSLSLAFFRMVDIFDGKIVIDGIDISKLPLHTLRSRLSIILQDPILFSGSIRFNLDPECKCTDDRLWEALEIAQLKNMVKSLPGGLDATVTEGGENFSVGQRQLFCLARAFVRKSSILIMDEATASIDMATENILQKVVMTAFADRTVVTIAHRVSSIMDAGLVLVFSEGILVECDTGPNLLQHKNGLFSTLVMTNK
method_notes: […] of SUR2A/kir6.2 channel in Wistar rat thoracic aorta assessed as relaxation of Kcl-induced contraction
Type: tissue-based
Use 5 as the dividing line for pED50, with the line itself on the 1 side and lower values as -1.

{"compound": "CC1(C)CC(NC(=O)NCc2ccccc2)c2cc(Br)ccc2O1 (configuration not stated)", "class_name": -1}
{"compound": "CCOC(=O)NC1CC(C)(C)Oc2ccc(F)cc21 (configuration not stated)", "class_name": -1}
{"compound": "CC1(C)CC(NC(=S)NCc2ccccc2)c2cc(F)ccc2O1 (configuration not stated)", "class_name": 1}
{"compound": "CCNC(=S)NC1CC(C)(C)Oc2ccc(Br)cc21 (configuration not stated)", "class_name": 1}
{"compound": "CCNC(=O)NC1CC(C)(C)Oc2ccc(F)cc21 (configuration not stated)", "class_name": -1}
{"compound": "Cc1ccc(S(=O)(=O)NC(=O)NC2CC(C)(C)Oc3ccc(Cl)cc32)cc1 (configuration not stated)", "class_name": -1}
{"compound": "CC1(C)CC(NC(=S)NCc2ccccc2)c2cc(Cl)ccc2O1 (configuration not stated)", "class_name": -1}
{"compound": "CCOC(=O)NC1CC(C)(C)Oc2ccc(Br)cc21 (configuration not stated)", "class_name": -1}
{"compound": "CC1(C)CC(NC(=O)NS(=O)(=O)c2ccc(Cl)cc2)c2cc(Cl)ccc2O1 (configuration not stated)", "class_name": -1}
{"compound": "CC1(C)Oc2ccc(C#N)cc2C(N2CCCC2=O)C1O (racemic)", "class_name": 1}
{"compound": "CCOC(=O)NC1CC(C)(C)Oc2ccc(Cl)cc21 (configuration not stated)", "class_name": -1}
{"compound": "CC1(C)CC(NC(=S)NCc2ccccc2)c2cc(Br)ccc2O1 (configuration not stated)", "class_name": -1}
{"compound": "CC(C)NC(=O)NC1CC(C)(C)Oc2ccc(F)cc21 (configuration not stated)", "class_name": -1}
{"compound": "CC(=O)NC1CC(C)(C)Oc2ccc(F)cc21 (configuration not stated)", "class_name": -1}
{"compound": "CCNC(=S)NC1CC(C)(C)Oc2ccc(F)cc21 (configuration not stated)", "class_name": -1}
{"compound": "CC1(C)CC(NC(=O)NS(=O)(=O)c2ccccc2)c2cc(Cl)ccc2O1 (configuration not stated)", "class_name": -1}
{"compound": "CC1(C)CC(NC(=O)NCc2ccccc2)c2cc(Cl)ccc2O1 (configuration not stated)", "class_name": -1}
{"compound": "CC(=O)NC1CC(C)(C)Oc2ccc(Br)cc21 (configuration not stated)", "class_name": 1}
{"compound": "CC(=O)NC1CC(C)(C)Oc2ccc(Cl)cc21 (configuration not stated)", "class_name": 1}
{"compound": "CC(C)NC(=S)NC1CC(C)(C)Oc2ccc(F)cc21 (configuration not stated)", "class_name": -1}
{"compound": "CCNC(=O)NC1CC(C)(C)Oc2ccc(Cl)cc21 (configuration not stated)", "class_name": 1}
{"compound": "CC(C)NC(=O)NC1CC(C)(C)Oc2ccc(Br)cc21 (configuration not stated)", "class_name": -1}
{"compound": "CC(C)NC(=O)NC1CC(C)(C)Oc2ccc(Cl)cc21 (configuration not stated)", "class_name": -1}

====

measured_target: ATP-binding cassette sub-family C member 9 (Rattus norvegicus) (UniProt Q63563)
method_notes: […] of SUR2A/kir6.2 channel in Wistar rat thoracic aorta assessed as relaxation of Kcl-induced contraction
Assay type: tissue-based

{"compound": "CC(C)NC(=S)NC1CC(C)(C)Oc2ccc(Cl)cc21 (centres undefined)", "pED50": 4.96}
{"compound": "CCNC(=O)NC1CC(C)(C)Oc2ccc(Br)cc21 (centres undefined)", "pED50": 5.12}
{"compound": "CCNC(=S)NC1CC(C)(C)Oc2ccc(Cl)cc21 (centres undefined)", "pED50": 5.09}
{"compound": "CC(C)NC(=S)NC1CC(C)(C)Oc2ccc(Br)cc21 (centres undefined)", "pED50": 5.06}
